- Measured Target: IL17-RE-IL-17C (Homo sapiens, UniProt Q8NFR9+Q9P0M4)
- Assay Remarks: Inhibition of IL-17C/IL-17RE interaction (unknown origin) incubated for 1.5 hrs by ELISA method
Positions of bridges follow the written chain, without caps; N, C: chain ends. Residues, ends and D or L forms follow the SMILES beside them.
Measured Parameter: IC50 (µM)
A number alone suffices; assume µM.

Which IC50 value belongs to CC[C@H](C)[C@@H]1NC(=O)[C@H](CCCNC(=N)N)NC(=O)[C@H](Cc2ccccc2)NC(=O)[C@H](Cc2ccc(O)cc2)NC(=O)[C@H](Cc2c[nH]cn2)NC(=O)[C@H](Cc2c[nH]cn2)NC(=O)[C@H](Cc2ccc(O)cc2)NC(=O)CSC[C@@H](C(=O)NCC(N)=O)NC(=O)CNC(=O)[C@H](CC(C)C)NC(=O)[C@H](CCC(=O)O)NC(=O)CNC(=O)[C@H](Cc2ccc(O)cc2)NC(=O)[C@H](CC(C)C)NC1=O ({CH2CO}-YHHYFRILYGELGCG-NH2; thioether N-14) ?
3.97

====

IC50 reference
- Measured Target: IL17-RE-IL-17C (Homo sapiens, UniProt Q8NFR9+Q9P0M4)
- Sequence (Q9P0M4 whole entry): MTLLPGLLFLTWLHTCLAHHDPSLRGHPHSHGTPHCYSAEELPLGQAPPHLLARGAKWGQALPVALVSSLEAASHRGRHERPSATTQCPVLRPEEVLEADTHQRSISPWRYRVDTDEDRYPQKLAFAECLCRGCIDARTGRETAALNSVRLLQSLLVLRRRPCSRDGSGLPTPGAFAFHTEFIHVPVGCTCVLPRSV
- Sequence (Q8NFR9 whole entry): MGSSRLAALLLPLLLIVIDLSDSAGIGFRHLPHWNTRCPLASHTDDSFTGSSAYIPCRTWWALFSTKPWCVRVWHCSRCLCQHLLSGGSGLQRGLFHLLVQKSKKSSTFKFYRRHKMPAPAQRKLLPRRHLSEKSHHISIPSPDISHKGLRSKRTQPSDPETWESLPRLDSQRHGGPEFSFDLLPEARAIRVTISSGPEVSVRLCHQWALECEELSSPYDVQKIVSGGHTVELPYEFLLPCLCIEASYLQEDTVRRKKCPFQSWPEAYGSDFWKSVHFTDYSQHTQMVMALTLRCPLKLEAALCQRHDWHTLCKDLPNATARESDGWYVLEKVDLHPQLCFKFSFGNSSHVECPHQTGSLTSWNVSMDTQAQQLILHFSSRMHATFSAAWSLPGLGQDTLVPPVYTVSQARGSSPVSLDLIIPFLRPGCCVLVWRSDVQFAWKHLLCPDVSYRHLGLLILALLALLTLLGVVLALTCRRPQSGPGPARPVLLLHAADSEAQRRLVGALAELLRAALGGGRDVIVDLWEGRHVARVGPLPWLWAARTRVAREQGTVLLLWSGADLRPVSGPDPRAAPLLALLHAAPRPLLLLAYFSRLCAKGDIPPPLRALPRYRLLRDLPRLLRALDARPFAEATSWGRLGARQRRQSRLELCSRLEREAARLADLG
- Assay Remarks: Inhibition of IL-17C/IL-17RE interaction (unknown origin) incubated for 1.5 hrs by ELISA method
Positions of bridges follow the written chain, without caps; N, C: chain ends. Residues, ends and D or L forms follow the SMILES beside them.
Only the number, expressed in nM, is required.

{"columns": ["Molecule", "Measured Parameter", "Result"],
 "data": [
  ["CC[C@H](C)[C@@H]1NC(=O)[C@H](CCCNC(=N)N)NC(=O)[C@H](Cc2ccc(O)cc2)NC(=O)[C@H](Cc2ccc(O)cc2)NC(=O)C(C)NC(=O)[C@H](Cc2c[nH]cn2)NC(=O)[C@H](Cc2ccc(O)cc2)NC(=O)CSC[C@@H](C(=O)NCC(N)=O)NC(=O)CNC(=O)[C@H](CC(C)C)NC(=O)[C@H](CCC(=O)O)NC(=O)CNC(=O)[C@H](Cc2ccc(O)cc2)NC(=O)[C@H](CC(C)C)NC1=O (single isomer, unassigned)", "IC50", 529]
]}

Kindly review the next molecule as well.
Look at this molecule and give its reported IC50. CC(C)C[C@@H]1NC(=O)[C@H](CCC(=O)O)NC(=O)CNC(=O)[C@H](Cc2ccc(O)cc2)NC(=O)[C@H](CC(C)C)NC(=O)[C@H]([C@@H](C)O)NC(=O)[C@H](CCCNC(=N)N)NC(=O)[C@H](Cc2ccc(O)cc2)NC(=O)[C@H](Cc2ccc(O)cc2)NC(=O)[C@H](Cc2c[nH]cn2)NC(=O)[C@H](Cc2c[nH]cn2)NC(=O)[C@H](Cc2ccc(O)cc2)NC(=O)CSC[C@@H](C(=O)NCC(N)=O)NC(=O)CNC1=O ({CH2CO}-YHHYYRTLYGELGCG-NH2; thioether N-14)
288
